Biological target: hNSun6 (Homo sapiens, UniProt Q8TEA1)
Sequence (Q8TEA1 1-469): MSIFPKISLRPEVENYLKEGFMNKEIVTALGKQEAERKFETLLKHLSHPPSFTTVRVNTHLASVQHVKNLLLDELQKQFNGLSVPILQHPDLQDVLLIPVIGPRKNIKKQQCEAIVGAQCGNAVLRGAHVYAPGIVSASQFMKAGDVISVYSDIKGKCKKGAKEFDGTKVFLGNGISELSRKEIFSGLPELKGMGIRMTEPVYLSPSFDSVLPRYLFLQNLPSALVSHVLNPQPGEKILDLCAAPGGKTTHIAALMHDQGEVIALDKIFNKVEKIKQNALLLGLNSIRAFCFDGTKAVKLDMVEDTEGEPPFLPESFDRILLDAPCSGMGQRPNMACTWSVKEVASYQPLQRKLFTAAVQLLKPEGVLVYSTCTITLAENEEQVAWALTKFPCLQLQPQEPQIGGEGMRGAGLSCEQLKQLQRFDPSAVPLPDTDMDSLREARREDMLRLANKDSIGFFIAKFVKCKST
Reported Property: Kd (nM)
Answer in nM, number only, no unit symbol.

Task: # get_value(readout='Kd', item= C[S+](CC[C@H](N)C(=O)O)C[C@H]1O[C@@H](n2cnc3c(N)ncnc32)[C@H](O)[C@@H]1O (stereo partly shown) )
Output: 1700
